Conditions: dose 200 mg/m^2
MEASURED ENDPOINT: Observed Mean AUCinf (ng·h/mL)
Express the result in ng·h/mL but write the number alone.

Lookup result for CCc1c2c(nc3ccc(O)cc13)-c1cc3c(c(=O)n1C2)COC(=O)[C@]3(O)CC ; measured Observed Mean AUCinf: 468

====

Assay: Study 2: pharmacokinetics of oral irinotecan and M1, 5-20 mg/m^2 per day for 10 days during a 21 day cycle
Conditions: human, in vivo, oral, 10 mg/m2, AUC24, Day 1; dose group 10 mg/m^2; mean
MEASURED ENDPOINT: AUC
Express your answer as a number followed by its unit.

Per the records, this molecule ( CCc1c2c(nc3ccc(OC(=O)N4CCC(N5CCCCC5)CC4)cc13)-c1cc3c(c(=O)n1C2)COC(=O)[C@]3(O)CC [oral irinotecan, reference compound] ) has AUC equal to 123 ng·h/mL

Value source: patent US11752139B2
